# assay.protocol: Selectivity index, ratio of IC50 for antiproliferative activity against human HHL5 cells to IC50 for antiproliferative activity against human Huh-7 cells
# Assay type: toxicity, cell-based
# condition.description: HHL5 cells and Huh-7 cells, read-out: Selectivity Index
In this section, each of the compounds is paired with its reported selectivity ratio.
measure.name: selectivity ratio

>>> measured("C=CCCOC(=O)[C@]1(C)CCC[C@@]2(C)[C@@H]3CC[C@]4(OC(=O)CC)C[C@@]3(CC[C@@H]21)C(=O)C4=C")
6.1
>>> measured("C=C1C(=O)[C@@]23CC[C@H]4[C@@](C)(CCC[C@@]4(C)C(=O)OCCC4CCCCC4)[C@@H]2CC[C@]1(O)C3")
5.2
>>> measured("C=C1C(=O)[C@@]23CC[C@H]4[C@@](C)(CCC[C@@]4(C)C(=O)OCCCc4ccccc4)[C@@H]2CC[C@]1(OC(=O)CC)C3")
3.1
>>> measured("C=CCOC(=O)[C@]1(C)CCC[C@@]2(C)[C@@H]3CC[C@]4(OC(=O)CCC)C[C@@]3(CC[C@@H]21)C(=O)C4=C")
32.2
>>> measured("C=C1C(=O)[C@@]23CC[C@H]4[C@@](C)(CCC[C@@]4(C)C(=O)OCCc4ccccc4)[C@@H]2CC[C@]1(OC(=O)CC)C3")
1
